# test target: T1, extracellular domain (ECD) of recombinant human Sortilin with a C-terminal HIS tag (ECD-huSortilin-HIS) (human, UniProt Q99523 78-755)
# T1 construct: Bought (R&D Systems); also called human sortilin-ECD; not shown: C-terminal HIS tag
# T1 sequence: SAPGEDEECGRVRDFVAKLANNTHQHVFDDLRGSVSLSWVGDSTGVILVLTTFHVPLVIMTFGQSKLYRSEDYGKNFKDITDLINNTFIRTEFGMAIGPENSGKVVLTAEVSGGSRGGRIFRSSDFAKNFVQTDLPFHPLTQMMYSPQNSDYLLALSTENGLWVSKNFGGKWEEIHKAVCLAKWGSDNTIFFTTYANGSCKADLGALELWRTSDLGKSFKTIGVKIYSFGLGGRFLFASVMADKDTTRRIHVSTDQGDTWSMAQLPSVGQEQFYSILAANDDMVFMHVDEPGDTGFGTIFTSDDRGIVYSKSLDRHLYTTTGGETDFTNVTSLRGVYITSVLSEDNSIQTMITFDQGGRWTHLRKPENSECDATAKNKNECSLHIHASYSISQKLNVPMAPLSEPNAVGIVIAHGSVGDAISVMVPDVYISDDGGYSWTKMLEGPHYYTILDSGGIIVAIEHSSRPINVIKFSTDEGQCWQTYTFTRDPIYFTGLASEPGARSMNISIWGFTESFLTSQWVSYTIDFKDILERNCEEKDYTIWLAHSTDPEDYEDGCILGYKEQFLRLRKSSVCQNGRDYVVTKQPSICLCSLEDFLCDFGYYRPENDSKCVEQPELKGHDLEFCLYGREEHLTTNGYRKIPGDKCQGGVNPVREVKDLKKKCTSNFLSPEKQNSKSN
# protocol: SPR (Biacore T200), mAb captured by anti-human antibody on CM5, Sortilin 0.1-300 nM as analyte, global 1:1 fit
Each entry below lists one item and its recorded koff value.
observed property: koff (s⁻¹)

binder	value reported
humanized 8H24 hu8H24VHv2/hu8H24VLv1 (antibody, V domains shown, Human IgG; also called 8H24H2L1) VH: QAQLVQSGAEVVKPGSSVKVSCKASGYTFTSYSMHWVRQAPGQGLEWIGAIYPGNDATSYNQKFKGRATLTVDKSTSTAYMELSSLRSEDTAVYFCAREGYYGSSFEAWFASWGQGTTVTVSS VL: DVVMTQTPLSLPVTPGEPASISCRSSQSIVHSNGNTYLEWYLQKPGQSPQLLIYKVSNRFSGVPDRFSGSGSGTDFTLKISRVEAEDVGVYYCFQGSHVLPTFGGGTKVEIK	0.00157
humanized 11M14 hu11M14VHv1b/hu11M14VLv4b (antibody, V domains shown, Human IgG; also called 11M14H1bL4b) VH: EVQLVESGGGLVQPGGSLRLSCAASGFTFNIYGMSWVRQAPGKGLEWVATISSGGIYTYYPDILKGRFTISRDNAKNSLYLQMNSLRAEDTAVYYCARHPGGAMDYWGQGTLVTVSS VL: DIQMTQSPSSLSASVGDRVTITCRVSENIYSNLAWYQQKPGKSPKLLVYAATNIADGVPSRFSGSGSGTDYTLTISSLQPEDFATYYCQHFWGTPPWTFGQGTKLEIK	0.0019
humanized 5E20 hu5E20VHv7/hu5E20VLv3 (antibody, V domains shown, Human IgG; also called 5E20H7L3) VH: EVQLVESGGGLVQPGGSLRLSCAASGFTFSTYGMSWVRQTPDKRLEWVAIISSGGSYTYYSDTVKGRFTISRDNSKNSLYLQMNSLRAEDTAVYYCSRSSSHWYFDVWGQGTLVTVSS VL: DIQMTQSPSSVSASVGDRVTITCHASQGISSNIGWLQQKPGKAFKGLIYHGTNLKDGVPSRFSGSGSGADFTLTISSLQPEDFATYFCVQYAQFPYTFGQGTKVEKR	0.00108
